Target: T1, human CD38 (human, UniProt P28907 43-300, limits assumed)
T1 construct: also called hCD38
T1 sequence (looked up): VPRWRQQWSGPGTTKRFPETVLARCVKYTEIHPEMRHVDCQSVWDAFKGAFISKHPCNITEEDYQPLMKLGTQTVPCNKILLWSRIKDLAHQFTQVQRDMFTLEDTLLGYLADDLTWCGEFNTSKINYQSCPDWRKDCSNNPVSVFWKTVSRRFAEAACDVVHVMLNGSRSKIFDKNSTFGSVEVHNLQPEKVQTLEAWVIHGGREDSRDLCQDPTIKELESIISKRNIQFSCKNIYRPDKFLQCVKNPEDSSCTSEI
Test: fluorescence polarisation competition, tracer …-Sar6-K(Fl)
Starred links: 1 amine or outer side, 2 acyl side, 3 side chain; linkers in the order of their positions; H or OH if unused. Positions of bridges follow the written chain, without caps; N, C: chain ends. No end group written: not given here. TBMB = c1c(C[*:1])cc(C[*:3])cc1C[*:2]
parameter: pKi
Quick note: pKi means taking -log10 of the concentration in moles per liter.

For this binder ( ACFTLDGECFLLGENCA (linker 2-9-16 via TBMB (inferred)) [66-08-52-N001] ), measured pKi is 6.25
